# system: Estrogen receptor beta (Homo sapiens) (UniProt Q92731)
# Sequence (Q92731 whole entry, looked up): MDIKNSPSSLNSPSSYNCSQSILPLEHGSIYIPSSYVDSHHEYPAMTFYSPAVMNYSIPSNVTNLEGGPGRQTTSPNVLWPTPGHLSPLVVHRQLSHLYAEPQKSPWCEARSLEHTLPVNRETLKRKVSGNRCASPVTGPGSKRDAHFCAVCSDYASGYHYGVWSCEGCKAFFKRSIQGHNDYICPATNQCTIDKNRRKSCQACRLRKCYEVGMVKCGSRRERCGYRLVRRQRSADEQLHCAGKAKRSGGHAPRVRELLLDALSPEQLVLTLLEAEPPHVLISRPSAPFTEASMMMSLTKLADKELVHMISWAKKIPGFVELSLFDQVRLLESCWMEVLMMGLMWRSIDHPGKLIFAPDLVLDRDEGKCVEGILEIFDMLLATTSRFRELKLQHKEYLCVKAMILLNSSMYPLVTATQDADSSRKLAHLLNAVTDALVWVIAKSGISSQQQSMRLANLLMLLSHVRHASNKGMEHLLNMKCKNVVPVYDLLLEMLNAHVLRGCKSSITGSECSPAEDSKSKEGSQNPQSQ
# assay: qHTS assay to identify small molecule antagonists of the estrogen receptor beta (ER-beta) signaling pathway (AID 1259378)
# condition-description: ER-beta-UAS-bla HEK293T, beta-lactamase FRET ratio, 16 h; series mostly up to 92.4 µM
Records with an inconclusive call do not appear. Activity calls are given as the source filed them. Calls follow the shape of the dose curve; as a rule, active = well fitted inhibition curve with a large enough effect in the signal ratio in the repeat runs (not every such curve was filed as active); inconclusive = weak or mixed curves, or effect the other way; inactive = no such curve, though single readings can be large or run the other way; the % refers to the signal ratio.
Outcomes: active, inactive

>>> class_label("SC1CCCCC1")
"inactive"
>>> class_label("CCCCCCCCCCCCN1CCCC1=O")
"active"
>>> class_label("Oc1ccc2c(c1)CCC2")
"inactive"
>>> class_label("CN(C/C=C/c1ccccc1)Cc1cccc2ccccc12")
"inactive"
>>> class_label("COc1ccc(OC)c(N=Nc2c(O)ccc3ccccc23)c1")
"inactive"
>>> class_label("O=C(CCN1CCC(c2ccccc2)C1)c1ccc2c(c1)OCCO2 (centres undefined)")
"inactive"
>>> class_label("CCCCCc1ccc(O)cc1")
"inactive"
>>> class_label("CC(C=O)c1ccccc1 (centres undefined)")
"inactive"
>>> class_label("Cc1ccc(Cl)c(N)c1Cl")
"inactive"
>>> class_label("O=[N+]([O-])c1ccc(CO)cc1")
"inactive"
>>> class_label("CN[C@H]1CC[C@@H](c2ccc(Cl)c(Cl)c2)c2ccc(S(N)(=O)=O)cc21")
"active"
>>> class_label("CCN(CCC#N)c1ccc(N=Nc2ccc([N+](=O)[O-])cc2)cc1")
"inactive"
>>> class_label("O=C(O)CN(CCCN(CC(=O)O)CC(=O)O)CC(=O)O")
"active"
>>> class_label("N#CCCOCCC#N")
"inactive"

* * *

# assay: qHTS assay to test for compound auto fluorescence at 535 nm (green) in HEK293 cell free culture (AID 720682); also: % is scaled to controls: 0 for no effect and ±100 for the full control effect
# condition-description: cell-free medium, green autofluorescence 485/535 nm; series mostly up to 46 µM
The source made the active and inactive calls. The call rests on the fitted dose curve; in most records, active means well fitted curve in the direction sought with a large enough effect in the repeat runs; inconclusive means weak or mixed curves; inactive means flat fitted curve, though single readings scatter.
parameter: outcome

>>> readout_value("Nc1cc(Cl)c(NC2=NCCN2)c(Cl)c1")
"inactive"
>>> readout_value("CC(C)CCC[C@@H](C)[C@H]1CC[C@H]2[C@@H]3CC=C4C[C@@H](O)CC[C@]4(C)[C@H]3CC[C@]12C")
"inactive"
>>> readout_value("CC[C@@H](C(=O)[C@@H](C)[C@@H](O)[C@H](C)CCc1ccc(C)c(O)c1C(=O)O)[C@H]1O[C@](CC)([C@H]2CC[C@](O)(CC)[C@H](C)O2)C[C@@H]1C")
"inactive"
>>> readout_value("CC(C)OC(=O)Nc1ccc2nc(-c3cscn3)[nH]c2c1")
"inactive"
>>> readout_value("COC(=O)[C@H]1[C@H]2C[C@H]3c4[nH]c5ccccc5c4CCN3C[C@H]2CC[C@@H]1O")
"inactive"
>>> readout_value("CC(C)C[C@H](NC(=O)[C@@H](COC(C)(C)C)NC(=O)[C@H](Cc1ccc(O)cc1)NC(=O)[C@H](CO)NC(=O)[C@H](Cc1c[nH]c2ccccc12)NC(=O)[C@H](Cc1cnc[nH]1)NC(=O)[C@@H]1CCC(=O)N1)C(=O)N[C@@H](CCCN=C(N)N)C(=O)N1CCC[C@H]1C(=O)NNC(N)=O")
"inactive"
>>> readout_value("O=C1c2c(O)cccc2[C@H]([C@@H]2O[C@H](CO)[C@@H](O)[C@H](O)[C@H]2O)c2cc(CO)cc(O)c21")
"inactive"
>>> readout_value("NCCCC[C@H](NC(=O)[C@@H]1CCCN1C(=O)[C@@H]1CSSC[C@H](N)C(=O)N[C@@H](Cc2ccc(O)cc2)C(=O)N[C@@H](Cc2ccccc2)C(=O)N[C@@H](CCC(N)=O)C(=O)N[C@@H](CC(N)=O)C(=O)N1)C(=O)NCC(N)=O")
"inactive"
>>> readout_value("COC(=O)C(CN)c1c[nH]c2ccc(OC)cc12 (stereo not drawn)")
"inactive"
>>> readout_value("NC(=S)NS(=O)(=O)c1ccc(N)cc1")
"inactive"
>>> readout_value("COc1cc2c(cc1O)CCN[C@]21CS[C@@H]2c3c(OC(C)=O)c(C)c4c(c3[C@H](COC1=O)N1[C@@H]2[C@H]2c3c(cc(C)c(OC)c3O)C[C@@H]([C@@H]1O)N2C)OCO4")
"inactive"
>>> readout_value("CCCCC[C@H](O)/C=C/[C@@H]1[C@@H](C/C=C\\CCCC(=O)O)[C@@H](O)C[C@H]1O")
"inactive"
>>> readout_value("CC(C)(O/N=C(\\C(=O)N[C@@H]1C(=O)N2C(C(=O)[O-])=C(C[n+]3ccccc3)CS[C@H]12)c1csc(N)n1)C(=O)O")
"inactive"
>>> readout_value("Nc1nc(NC2CC2)c2ncn([C@@H]3C=C[C@@H](CO)C3)c2n1")
"inactive"
>>> readout_value("CC(C)CCC[C@@H](C)[C@H]1CC[C@H]2[C@@H]3CC[C@@H]4C[C@H](O)CC[C@]4(C)[C@H]3CC[C@]12C")
"inactive"
>>> readout_value("CN1[C@@H](CC(=O)c2ccccc2)CCC[C@H]1C[C@H](O)c1ccccc1")
"inactive"
>>> readout_value("NCCCC(=O)O")
"inactive"
>>> readout_value("Cc1cc(Br)ccc1NC(=O)CCl")
"inactive"
>>> readout_value("CC1CCCCN1CCCOC(=O)c1ccccc1 (stereo not drawn)")
"inactive"
>>> readout_value("CNC(=O)OCc1cccc(COC(=O)NC)n1")
"inactive"
>>> readout_value("CCN(CC)C(=O)c1cccnc1")
"inactive"
>>> readout_value("Nc1ccc(N)c([N+](=O)[O-])c1")
"inactive"
>>> readout_value("COc1ccc([C@@H]2CC(=O)c3c(O)cc(O[C@@H]4O[C@H](CO[C@@H]5O[C@@H](C)[C@H](O)[C@@H](O)[C@H]5O)[C@@H](O)[C@H](O)[C@H]4O)cc3O2)cc1O")
"inactive"
>>> readout_value("COc1cccc2c1[C@@H]1CN(CCCCn3c(=O)[nH]c4c(sc5ncc(-c6ccccc6)nc54)c3=O)C[C@@H]1CO2")
"inactive"
>>> readout_value("CCC(NC(C)C)C(O)c1ccc(O)c(O)c1 (stereo not drawn)")
"inactive"
>>> readout_value("CO/N=C(\\C(=O)N[C@@H]1C(=O)N2C(C(=O)[O-])=C(C[n+]3cccc4c3CCC4)CS[C@H]12)c1csc(N)n1")
"inactive"
>>> readout_value("CCCCCCCCCCCCCCCCCCOCC(COP(=O)([O-])OCC[N+](C)(C)C)OC (stereo not drawn)")
"inactive"
>>> readout_value("C=C1[C@H](CO)[C@@H](O)C[C@@H]1n1cnc2c(=O)[nH]c(N)nc21")
"inactive"
>>> readout_value("CC(CNC(=O)c1cccnc1)NC(=O)c1cccnc1 (stereo not drawn)")
"inactive"
>>> readout_value("NCC[C@H](O)C(=O)N[C@@H]1C[C@H](N)[C@@H](O[C@H]2O[C@H](CN)CC[C@H]2N)[C@H](O)[C@H]1O[C@H]1O[C@H](CO)[C@@H](O)[C@H](N)[C@H]1O")
"inactive"
>>> readout_value("C[C@@H]1O[C@@H]1P(=O)(O)O")
"inactive"
>>> readout_value("N#Cc1c(N(CC(=O)O)CC(=O)O)sc(C(=O)O)c1CC(=O)O")
"inactive"
>>> readout_value("CN[C@@H]1[C@@H](O[C@H]2O[C@H](CO)[C@@H](N)[C@H](O)[C@H]2O)O[C@H]2C[C@@H](N)[C@@H](O[C@H]3[C@H](O)[C@@H](O)[C@H](N)C[C@@H]3N)O[C@@H]2[C@@H]1O")
"inactive"

* * *

# assay: qHTS assay to identify small molecule agonists of the vitamin D receptor (VDR) signaling pathway - cell viability counter screen (AID 743224); also: nearly all actives have a fitted effect of over 50% in size
# condition-description: VDR-bla HEK293T viability, CellTiter-Glo luminescence, 16 h; series mostly up to 62.6 µM
# Excerpt: U.S. Tox21 Program National Center for Advancing Translational Sciences [NCATS] NIH Chemical Genomics Center [NCGC] U.S. Environmental Protection Agency [EPA] National Institutes of Environmental Health Sciences [NIEHS] National Toxicology Program [NTP] U.S. Food and Drug Administration [FDA] Tox21 Assay Overview: The vitamin D receptor (VDR), a member of nuclear hormone receptor superfamily, plays a critical role in calcium homeostasis and bone metabolism. […]
Results filed as inconclusive are left out. Active and inactive are the calls of the source. The call rests on the fitted dose curve; in most records, active means well fitted cell-killing curve with a large enough effect in the repeat runs; inconclusive means weak or mixed curves, or effect the other way; inactive means no such curve, though single readings can be large or run the other way.
Outcomes: label 1 for active, label 0 for inactive

>>> class_label("CC1=C(/C=C/C(C)=C/C=C/C(C)=C\\C(=O)O)C(C)(C)CCC1")
"label 0"
>>> class_label("CCCCCCCCCCCCCCCCCCNC(=O)OC1CCN(C(=O)OC[C@H](COC(=O)N(Cc2cccc[n+]2CC)C(=O)c2ccccc2OC)OC)CC1")
"label 1"
>>> class_label("Cc1ccc(Cl)c(N)c1Cl")
"label 1"
>>> class_label("O=C1OC(=O)c2cc(-c3ccc4c(c3)C(=O)OC4=O)ccc21")
"label 1"
>>> class_label("COc1cc(/C=C/C(=O)CC(=O)/C=C/c2ccc(O)c(OC)c2)ccc1O")
"label 1"
>>> class_label("Cc1cc(F)ccc1-c1cc(N2CC[C@@H](O)[C@H]2CO)ncc1N(C)C(=O)C(C)(C)c1cc(C(F)(F)F)cc(C(F)(F)F)c1")
"label 1"
>>> class_label("CCCCCCCCOC(=O)c1cc(O)c(O)c(O)c1")
"label 1"
>>> class_label("CCCCCCCCCCCCN1CCCC1=O")
"label 1"
>>> class_label("CCCCCCCC/C=C\\CCCCCCCC(=O)N(CCO)CCO")
"label 1"
>>> class_label("CCCCCCCCCCCCCCCCC(C(=O)O)C(O)(CC(=O)O)C(=O)O (configuration not stated)")
"label 1"
>>> class_label("c1ccc2cc3c4ccccc4c4ccccc4c3cc2c1")
"label 0"
>>> class_label("CN(C)CCOc1ccc(/C(=C(/CCCl)c2ccccc2)c2ccccc2)cc1")
"label 1"
>>> class_label("CN(C/C=C/c1ccccc1)Cc1cccc2ccccc12")
"label 1"
>>> class_label("Clc1nc(C(Cl)(Cl)Cl)c(Cl)c(Cl)c1Cl")
"label 1"
>>> class_label("Cc1cc(Br)ccc1NC(=O)CCl")
"label 1"
>>> class_label("NCc1cccc(C2CCN(C(=O)c3ccc(C#Cc4ccccc4F)o3)CC2)c1")
"label 1"
>>> class_label("c1ccc2occc2c1")
"label 1"
>>> class_label("Cc1ccc2nc(-c3ccc(N)cc3)sc2c1S(=O)(=O)O")
"label 0"
>>> class_label("CN(C[C@@H](CC[N+]12CCC(C3CCCCC3)(CC1)CC2)c1ccc(Cl)c(Cl)c1)C(=O)c1cc(C(F)(F)F)cc(C(F)(F)F)c1")
"label 1"
>>> class_label("O=C1CCCCCCCCCCCCCC1")
"label 0"
>>> class_label("Oc1ccc(Cl)cc1C1CCCC1")
"label 0"
>>> class_label("CC(Cc1ccc(O)c(O)c1)C(C)Cc1ccc(O)c(O)c1 (configuration not stated)")
"label 0"
